Every entry's value here was drawn from patent EP1614683B1.

reportedConditions: mouse, in vivo, ip, 25 mg/kg, pH 2.3
readoutKind: AUCleast
Hey, just the number and the unit after it is fine.

chemSmiles	assayValue
O=C(Nc1cccc(C(=O)c2ccc3c(-c4nc5cccnc5[nH]4)n[nH]c3c2)c1)c1ccccc1	1774 ng·h/mL
O=C(NC1CCC1)c1ccccc1Sc1ccc2c(/C=C/c3ccccn3)n[nH]c2c1	9408 ng·h/mL

Let us move to another entry and its AUCleast.
[in] Fill blank: measured AUCleast of the compound `O=C(c1cccc(NC(=O)c2ccccn2)c1)c1ccc2c(/C=C/c3ccccn3)n[nH]c2c1` is ____.
[out] 6659 ng·h/mL

###

reportedConditions: IP, 25 mg/kg, vehicle PEG400:H2O pH 2.3 30:70
readoutKind: T1/2
Hey, just the number and the unit after it is fine.

chemSmiles	T1/2
Cc1cc(C(=O)Nc2cccc(C(=O)c3ccc4c(/C=C/c5ccccn5)n[nH]c4c3)c2)n(C)n1	5.5 h

[in] Fill blank: measured T1/2 of the compound `CCn1nc(C)cc1C(=O)Nc1cccc(C(=O)c2ccc3c(/C=C/c4ccccn4)n[nH]c3c2)c1` is ____.
[out] 2.9 h

[in] Fill blank: measured T1/2 of the compound `Cn1nc(C(C)(C)C)cc1C(=O)Nc1cccc(C(=O)c2ccc3c(/C=C/c4ccccn4)n[nH]c3c2)c1` is ____.
[out] 3.2 h

###

reportedConditions: mouse, in vivo, ip, 25 mg/kg, pH 2.3
readoutKind: AUCleast

compound	readoutKind	assayValue
CCCn1nc(C)cc1C(=O)Nc1cccc(C(=O)c2ccc3c(/C=C/c4ccccn4)n[nH]c3c2)c1 [41 (r)]	AUCleast	> 23752 ng·h/mL

[in] Fill blank: measured AUCleast of the compound `CCONC(=O)c1ccccc1Sc1ccc2c(/C=C/c3ccccn3)n[nH]c2c1` is ____.
[out] > 23046 ng·h/mL

[in] Fill blank: measured AUCleast of the compound `O=C(Nc1cccc(C(=O)c2ccc3c(/C=C/c4ccccn4)n[nH]c3c2)c1)c1ccncc1` is ____.
[out] > 5868 ng·h/mL

###

measuredTarget: phosphorylated Tie-2 (aa 775-1122) (Homo sapiens)
Construct: 4 to 12 nM phosphorylated Tie-2 (aa 775-1122); made in house; host or cells: insect cells
assayProtocol: TIE-2 spectrophotometric assay
Assay type: biochemical
reportedConditions: Table 5; 1 µM; bold values spectrophotometric assay, non-bolded DELFIA assay (bold not visible here); read-out: % Inhibition @ 1 µM Tie2-P
readoutKind: inhibition at 1 µM (%)
Hi! Could you send only the number? It should be in %, unit omitted.

Before answering, review these 3 worked examples.
compound	measuredTarget	assayValue
CN(c1cccc(NC(=O)c2ccccc2)c1)c1ccc2c(/C=C/c3ccc4c(c3)OCO4)n[nH]c2c1	phosphorylated Tie-2 (aa 775-1122) (Homo sapiens)	10
CC(=O)Nc1cccc(Oc2ccc3c(/C=C/c4ccccc4)n[nH]c3c2)c1	phosphorylated Tie-2 (aa 775-1122) (Homo sapiens)	29
CC(C)ONC(=O)c1ccccc1Sc1ccc2c(/C=C/c3ccccn3)n[nH]c2c1 [Reference Example 35(k)]	phosphorylated Tie-2 (aa 775-1122) (Homo sapiens)	55

[in] Fill blank: measured inhibition at 1 µM of the compound CCn1nc(C)cc1C(=O)Nc1cc(C(=O)c2ccc3c(/C=C/c4ccccn4)n[nH]c3c2)ccc1C [Reference Example 41(ee)] is ____.
[out] 41

###

reportedConditions: mouse, in vivo, po, 50 mg/kg, 7 h, pH 2.3
Classification field: enter True for Cmin (7 hr conc.) values not below 5 ng/mL, False for values below it.

compound	labelValue
O=C(NCC(F)(F)F)c1ccccc1Sc1ccc2c(/C=C/c3ccccn3)n[nH]c2c1 [33 (f)]	False

Now for another entry.
[in] Check the entry Cc1ccc(CNC(=O)c2ccccc2Sc2ccc3c(/C=C/c4ccccn4)n[nH]c3c2)o1 [35 (h)] : does Cmin (7 hr conc.) equal or exceed 5 ng/mL?
[out] False

###

reportedConditions: mouse, in vivo, po, 25 mg/kg, pH 2.3
// reported T1/2 for each item listed
Hi! Could you send only the number? It should be in h, unit omitted.

compound	assayValue
CCCONC(=O)c1ccccc1Sc1ccc2c(/C=C/c3ccccn3)n[nH]c2c1	1.1
Cc1cc(C(=O)Nc2cc(Nc3ccc4c(/C=C/c5ccccn5)n[nH]c4c3)c(F)cc2C)n(C)n1	4
C#CCNC(=O)c1ccccc1Nc1ccc2c(/C=C/c3ccccn3)n[nH]c2c1	11.8

[in] Fill blank: measured T1/2 of the compound `O=C(NCCc1cccs1)c1ccccc1Sc1ccc2c(/C=C/c3ccccn3)n[nH]c2c1` is ____.
[out] 1.7

[in] Fill blank: measured T1/2 of the compound `CNC(=O)c1ccccc1Nc1ccc2c(/C=C/c3ccccn3)n[nH]c2c1` is ____.
[out] 1.4

###

measuredTarget: phosphorylated Tie-2 (aa 775-1122) (Homo sapiens, UniProt Q02763)
Construct: 4 to 12 nM phosphorylated Tie-2 (aa 775-1122); made in house; host or cells: insect cells
Sequence (Q02763 775-1122): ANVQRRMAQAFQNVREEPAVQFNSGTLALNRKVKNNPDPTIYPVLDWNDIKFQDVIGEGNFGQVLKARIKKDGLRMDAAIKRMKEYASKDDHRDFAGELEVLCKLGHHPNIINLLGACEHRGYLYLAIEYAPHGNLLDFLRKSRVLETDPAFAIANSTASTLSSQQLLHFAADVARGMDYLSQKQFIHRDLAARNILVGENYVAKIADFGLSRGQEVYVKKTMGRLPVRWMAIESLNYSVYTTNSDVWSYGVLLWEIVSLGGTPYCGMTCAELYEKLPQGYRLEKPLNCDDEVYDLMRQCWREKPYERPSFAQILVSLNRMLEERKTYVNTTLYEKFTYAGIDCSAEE
assayProtocol: TIE-2 spectrophotometric assay
Type: biochemical
reportedConditions: read-out: % Inhibition Tie2-P, compound tested at 10 µM
readoutKind: inhibition at 10 µM
Hey, just the number and the unit after it is fine.

compound	inhibition at 10 µM
C(=C\c1n[nH]c2cc(Oc3ccccc3)ccc12)/c1ccccc1 [8(a), 3-(E-styryl)-6-phenoxy-1H-indazole]	55%

[in] For the record `COc1cc(-c2ccc3c(-c4nc5ccccc5[nH]4)n[nH]c3c2)c(C)cc1O` , what value of inhibition at 10 µM is listed for phosphorylated Tie-2 (aa 775-1122) (Homo sapiens, UniProt Q02763)?
[out] 91%

[in] For the record `COc1cc(-c2ccc3c(-c4cc5ccccc5[nH]4)n[nH]c3c2)ccc1O` , what value of inhibition at 10 µM is listed for phosphorylated Tie-2 (aa 775-1122) (Homo sapiens, UniProt Q02763)?
[out] 90%

[in] For the record `Oc1ccc(Oc2ccc3c(/C=C/c4ccccc4)n[nH]c3c2)cc1` , what value of inhibition at 10 µM is listed for phosphorylated Tie-2 (aa 775-1122) (Homo sapiens, UniProt Q02763)?
[out] 88%

###

// reported inhibition at 1 µM for each item listed
measuredTarget: human FGF-R1 (Homo sapiens, UniProt P11362, C488A/C584S/L457V)
Sequence (P11362 456-766 L457V/C488A/C584S): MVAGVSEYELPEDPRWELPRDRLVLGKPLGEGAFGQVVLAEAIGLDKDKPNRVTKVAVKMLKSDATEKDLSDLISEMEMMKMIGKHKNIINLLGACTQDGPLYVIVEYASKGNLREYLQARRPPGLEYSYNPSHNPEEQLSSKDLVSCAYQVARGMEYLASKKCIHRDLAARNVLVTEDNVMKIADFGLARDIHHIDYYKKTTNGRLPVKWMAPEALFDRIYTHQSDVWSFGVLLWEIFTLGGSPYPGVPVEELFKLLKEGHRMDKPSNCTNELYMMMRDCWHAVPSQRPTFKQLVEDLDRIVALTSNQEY
assayProtocol: FGF-R spectrophotometric assay
Format: biochemical
reportedConditions: Table 1; compound concentration 1 µM; read-out: FGF-P* (% inhibition)
Hi! Could you send only the number? It should be in %, unit omitted.

[in] Fill blank: measured inhibition at 1 µM of the molecule CC(=O)NC(C(=O)Nc1cccc(C(=O)c2ccc3c(/C=C/c4ccccc4)n[nH]c3c2)c1)c1ccccc1 (stereo not shown) is ____.
[out] 88

###

// reported inhibition at 1 µM for each item listed
measuredTarget: human FGF-R1 (Homo sapiens, UniProt P11362, C488A/C584S/L457V)
assayProtocol: FGF-R spectrophotometric assay
Format: biochemical
reportedConditions: read-out: FGF* (% inhibition)
Hi! Could you send only the number? It should be in %, unit omitted.

Before answering, review these 6 worked examples.
compound	measuredTarget	inhibition at 1 µM / %
COc1cc(O)ccc1-c1ccc2c(-c3nc4ccncc4[nH]3)n[nH]c2c1 [Reference Example 25(a)]	human FGF-R1 (Homo sapiens, UniProt P11362, C488A/C584S/L457V)	62
COc1cc(O)ccc1-c1ccc2c(-c3nc4ccccc4[nH]3)n[nH]c2c1	human FGF-R1 (Homo sapiens, UniProt P11362, C488A/C584S/L457V)	66
COc1cc(O)ccc1-c1ccc2c(-c3ncc[nH]3)n[nH]c2c1 [Reference Example 25(e)]	human FGF-R1 (Homo sapiens, UniProt P11362, C488A/C584S/L457V)	26
COc1cc(O)ccc1-c1ccc2c(-c3nc4c(N5CCN(C)CC5)cccc4[nH]3)n[nH]c2c1 [Reference Example 25(d)]	human FGF-R1 (Homo sapiens, UniProt P11362, C488A/C584S/L457V)	80
COc1cc(-c2ccc3c(-c4nc5ccccc5[nH]4)n[nH]c3c2)c(C)cc1O	human FGF-R1 (Homo sapiens, UniProt P11362, C488A/C584S/L457V)	72
CNC(=O)c1ccc2[nH]c(-c3n[nH]c4cc(-c5ccc(O)cc5OC)ccc34)nc2c1 [Reference Example 25(g)]	human FGF-R1 (Homo sapiens, UniProt P11362, C488A/C584S/L457V)	82

[in] Fill blank: measured inhibition at 1 µM of the compound CNC(=O)c1cccc2[nH]c(-c3n[nH]c4cc(-c5ccc(O)cc5OC)ccc34)nc12 [Reference Example 25(j)] is ____.
[out] 70

[in] Fill blank: measured inhibition at 1 µM of the compound `Cc1cc(O)ccc1-c1ccc2c(-c3nc4ccccc4[nH]3)n[nH]c2c1` is ____.
[out] 88
